measured-attribute: logP

1) O=c1cc[nH]c(C(F)(F)F)c1O :: 0.87

(a) Cn1cc(O)c(=O)c(F)c1
(b) CCn1cc(O)c(=O)c(F)c1
Lower logP: a or b ? I would appreciate it if you answered with the label of your choice.
a
(a: -1.32, b: -0.89)

(a) CCCn1ccc(=O)c(O)c1F
(b) CCCn1cc(O)c(=O)c(F)c1
(c) CCCCn1ccc(=O)c(O)c1F
Highest logP first, then in falling order down to the smallest. Please respond with the labels ordered as the question requires.
c, a, b

(1) CCn1ccc(=O)c(O)c1F
(2) CC(C)n1cc(O)c(=O)c(F)c1
(3) O=c1cc[nH]c(C(O)C(F)(F)F)c1O (configuration not stated)
(4) O=c1c(O)c(F)[nH]c(F)c1F
(5) Cc1[nH]cc(F)c(=O)c1O
Please order the records by their reported logP, lowest number first. Please respond with the labels ordered as the question requires.
2, 1, 5, 3, 4
(2: -0.92, 1: -0.58, 5: 0, 3: 0.14, 4: 1.7)

(1) CC(C)n1ccc(=O)c(O)c1F
(2) O=c1cc(F)[nH]c(F)c1O
(3) Cn1ccc(=O)c(O)c1F
(4) Cc1cn(C)c(F)c(O)c1=O
Please order the records by their reported logP, lowest number first. Please respond with the labels ordered as the question requires.
3, 4, 1, 2
(3: -0.97, 4: -0.65, 1: -0.41, 2: 1.35)

(I) Cn1ccc(=O)c(O)c1C(F)(F)F
(II) Cc1c(O)c(=O)c(F)cn1C
Lower logP: I or II ? I would appreciate it if you answered with the label of your choice.
II
(II: -0.8, I: -0.45)

----------
assay-text: method code SF, from DOI: 10.1021/jm201475u, PMID: 22339047
condition-notes: pH 7.4
measured-attribute: logD

1) CCc1c(O)c(=O)ccn1CC :: 0.23
2) Cc1cc(=O)c(O)c(F)[nH]1 :: 0.25
3) O=c1cc[nH]c(F)c1O :: -0.21

(P) Cc1[nH]c(F)c(O)c(=O)c1C
(Q) Cc1c[nH]c(F)c(O)c1=O
Lower logD: P or Q ? I would appreciate it if you answered with the label of your choice.
Q
(Q: 0.5, P: 1.07)
